Where these numbers come from: ChEMBL document CHEMBL4376882

assay_summary: Drug uptake in human PANC1 cells at 5 uM after 2 hrs by FACS analysis
Format: ADME, cell-based
condition_label: panc-1, 2 h
attribute_measured: Drug uptake

CCCCCCCCCCCCCC[n+]1ccc(-c2c3nc(c(-c4cc[n+](C)cc4)c4ccc([nH]4)c(-c4cc[n+](C)cc4)c4nc(c(-c5cc[n+](C)cc5)c5ccc2[nH]5)C=C4)C=C3)cc1.[I-].[I-].[I-].[I-]	Active
CCCCCCCCCCCCCCCCCC[n+]1ccc(-c2c3nc(c(-c4cc[n+](C)cc4)c4ccc([nH]4)c(-c4cc[n+](C)cc4)c4nc(c(-c5cc[n+](C)cc5)c5ccc2[nH]5)C=C4)C=C3)cc1.[I-].[I-].[I-].[I-]	Active
C[n+]1ccc(-c2c3nc(c(-c4cc[n+](C)cc4)c4ccc([nH]4)c(-c4cc[n+](C)cc4)c4nc(c(-c5cc[n+](C)cc5)c5ccc2[nH]5)C=C4)C=C3)cc1.[Cl-].[Cl-].[Cl-].[Cl-] [TMPYP4 CHLORIDE]	Not Active
C[n+]1ccccc1-c1c2nc(c(-c3cccc[n+]3C)c3ccc([nH]3)c(-c3cccc[n+]3C)c3ccc([nH]3)c(-c3cccc[n+]3C)c3nc1C=C3)C=C2.[Cl-].[Cl-].[Cl-].[Cl-]	Not Active
